- Target desc: T1, biotinylated goat anti-human kappa light chain
- T1 construct: positive control of the ELISA
- Experimental details: ELISA, positive control; further: test concentration or dose not given here
- Procedure: The binding of ACVR2A-specific monoclonal antibodies to human ACVR2A, mouse ACVR2A, biotinylated goat anti-human kappa light chain (positive control) and human Fc (negative control) were determined by ELISA.
Parameter measured: optical density (OD)
The figure you give is taken to be in OD; do not add the unit.

Recorded results for 2 binders are shown here.
370_B12 (antibody, V domains shown, Group III) VH: EVQLLESGGGLVQPGGSLRLSCAASGFTFSDYSMNWVRQAPGKGLEWVSGINYNGGYKGYADSVKGRFTISRDNSKNTLYLQMNSLRAEDTAVYYCARGANWHDTALDYWGQGTLVTVSS VL: DIQMTQSPSSLSASVGDRVTITCRASQSILSYVNWYQQKPGKAPKLVIYATTSRASGVPSRFSGSGSGTDFTLTISSLQPEDFATYYCQQSYETPLTFGGGTKVEIK	3.56
376_B03 (antibody, V domains shown, Group III) VH: EVQLLESGGGLVQPGGSLRLSCAASGFTFSSYSMNWVRQAPGKGLEWVAGINYNSGYKSYADSVKGRFTISRDNSKNTLYLQMNSLRAEDTAVYYCARGANWHDTALDYWGQGTLVTVSS VL: DIQMTQSPSSLSASVGDRVTITCRASQSILSYVNWYQQKPGKAPKLVIYAVTSRHSGVPSRFSGSGSGTDFTLTISSLQPEDFATYYCQQSYDSPLTFGGGTKVEIK	3.52

Please examine the following record next.
Which measured optical density value corresponds to 374_B05 (antibody, V domains shown, Group III) VH: EVQLLESGGGLVQPGGSLRLSCAASGFTFDSYSMNWVRQAPGKGLEWVSGINYNSGYTSYADSVKGRFTISRDNSKNTLYLQMNSLRAEDTAVYYCARGANWHDTALDYWGQGTLVTVSS VL: DIQMTQSPSSLSASVGDRVTITCRASQSIVSYLNWYQQKPGKAPKLLIYAATSRHSGVPSRFSGSGSGTDFTLTISSLQPEDFATYYCQQSYESPLTFGGGTKVEIK ?
3.16
